biological target: IL16_1, Q14005; test: holdup assay; set-up: key: below the threshold = too weak to quantify, mostly under pKd 3.1 to 4; settings: plain residues with an end cap or a label only (N-terminal biotin on a linker: ado-ado)
Sequence (Q14005 210-306): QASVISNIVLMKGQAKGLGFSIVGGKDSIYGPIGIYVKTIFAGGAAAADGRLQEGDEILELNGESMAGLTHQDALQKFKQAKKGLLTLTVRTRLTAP

| binder | pKd |
| --- | --- |
| KLQNPNQSVV [TYRP1, P17643] | 3.94 |
| GDSSRKEYFI [GYPC, P04921] | below the threshold |
| QRYPGNQTTC [CCL24, O00175] | below the threshold |
| EFKQTSSFLV [JAM1, Q9Y624] | below the threshold |
